// each record: one item and its IC50 for Tyrosine-protein kinase JAK3 (Homo sapiens, UniProt P52333)
VALUE_TYPE: IC50

> print(dat)
                                   compound  reported.measurement
1  CC(=O)Nc1ccc(-c2ccnc(Nc3cccc(N4CCCCC4)c3)n2)cc1              > 980 nM
2  CC(=O)Nc1ccc(-c2ccnc(NC3CCCC(NC(=O)c4c(Cl)cccc4Cl)C3)n2)cc1 (centres undefined)              > 980 nM
3  O=C(Nc1ccc(-c2ccnc(Nc3ccc(N4CCOCC4)cc3)n2)cc1)[C@H]1CCNC1                368 nM
4  CC(=O)Nc1ccc(-c2ccnc(Nc3ccc(N4CCOCC4)cc3)n2)cc1              > 980 nM
5  CC(=O)Nc1ccc(-c2ccnc(Nc3cccc(NC(=O)c4ccccc4Cl)c3)n2)cc1              > 980 nM
6  C[C@H](N)C(=O)Nc1ccc(-c2ccnc(Nc3ccc(N4CCOCC4)cc3)n2)cc1                298 nM
7  CC(=O)Nc1ccc(-c2ccnc(NCC3CN(C(=O)c4c(Cl)cccc4Cl)C3)n2)cc1               5000 nM
8  CC(=O)Nc1ccc(-c2cc(Nc3ccc(N4CCOCC4)cc3)ncn2)cc1              > 980 nM
9  CC(=O)Nc1ccc(-c2ccnc(Nc3cccc(NC(=O)c4c(Cl)cccc4Cl)n3)n2)cc1              > 980 nM

---

# ASSAY_PROTOCOL: Oral bioavailability in CD rat at 5 mg/kg
# Type: ADME, organism-based
# APPLIED_CONDITIONS: in vivo
VALUE_TYPE: bioavailability (%)

> print(dat)
                        structure.as.smiles  reported.measurement
1  O=C(Nc1ccc(-c2ccnc(Nc3ccc(N4CCOCC4)cc3)n2)cc1)[C@H]1CCCN1                  53.6

---

# ASSAY_PROTOCOL: Half life in CD rat at 5 mg/kg, iv
# Assay type: ADME, organism-based
# Design: dose 5 mg/kg, route intravenous
# APPLIED_CONDITIONS: in vivo
VALUE_TYPE: half-life (h)

> print(dat)
                        structure.as.smiles  unit.label  reported.measurement
1  O=C(Nc1ccc(-c2ccnc(Nc3ccc(N4CCOCC4)cc3)n2)cc1)[C@H]1CCCN1           h                  3.12

---

# ASSAY_PROTOCOL: Half life in Beagle dog at 3 mg/kg, po
# Assay type: ADME, organism-based, Canis lupus familiaris
# Set-up: dose 3 mg/kg, route oral
# APPLIED_CONDITIONS: in vivo
VALUE_TYPE: half-life (h)

> print(dat)
                        structure.as.smiles  reported.measurement
1  O=C(Nc1ccc(-c2ccnc(Nc3ccc(N4CCOCC4)cc3)n2)cc1)[C@H]1CCCN1                  5.06

---

# ASSAY_PROTOCOL: Cmax in athymic nude mouse at 10 mg/kg, iv
# Format: ADME, organism-based
# Design: dose 10 mg/kg, route intravenous
# APPLIED_CONDITIONS: in vivo
VALUE_TYPE: Cmax

> print(dat)
                        structure.as.smiles  reported.measurement
1  O=C(Nc1ccc(-c2ccnc(Nc3ccc(N4CCOCC4)cc3)n2)cc1)[C@H]1CCCN1               5.24 µM

---

# SYSTEM_NAME: Tyrosine-protein kinase JAK2 (Homo sapiens, UniProt O60674)
# Sequence (O60674 whole entry): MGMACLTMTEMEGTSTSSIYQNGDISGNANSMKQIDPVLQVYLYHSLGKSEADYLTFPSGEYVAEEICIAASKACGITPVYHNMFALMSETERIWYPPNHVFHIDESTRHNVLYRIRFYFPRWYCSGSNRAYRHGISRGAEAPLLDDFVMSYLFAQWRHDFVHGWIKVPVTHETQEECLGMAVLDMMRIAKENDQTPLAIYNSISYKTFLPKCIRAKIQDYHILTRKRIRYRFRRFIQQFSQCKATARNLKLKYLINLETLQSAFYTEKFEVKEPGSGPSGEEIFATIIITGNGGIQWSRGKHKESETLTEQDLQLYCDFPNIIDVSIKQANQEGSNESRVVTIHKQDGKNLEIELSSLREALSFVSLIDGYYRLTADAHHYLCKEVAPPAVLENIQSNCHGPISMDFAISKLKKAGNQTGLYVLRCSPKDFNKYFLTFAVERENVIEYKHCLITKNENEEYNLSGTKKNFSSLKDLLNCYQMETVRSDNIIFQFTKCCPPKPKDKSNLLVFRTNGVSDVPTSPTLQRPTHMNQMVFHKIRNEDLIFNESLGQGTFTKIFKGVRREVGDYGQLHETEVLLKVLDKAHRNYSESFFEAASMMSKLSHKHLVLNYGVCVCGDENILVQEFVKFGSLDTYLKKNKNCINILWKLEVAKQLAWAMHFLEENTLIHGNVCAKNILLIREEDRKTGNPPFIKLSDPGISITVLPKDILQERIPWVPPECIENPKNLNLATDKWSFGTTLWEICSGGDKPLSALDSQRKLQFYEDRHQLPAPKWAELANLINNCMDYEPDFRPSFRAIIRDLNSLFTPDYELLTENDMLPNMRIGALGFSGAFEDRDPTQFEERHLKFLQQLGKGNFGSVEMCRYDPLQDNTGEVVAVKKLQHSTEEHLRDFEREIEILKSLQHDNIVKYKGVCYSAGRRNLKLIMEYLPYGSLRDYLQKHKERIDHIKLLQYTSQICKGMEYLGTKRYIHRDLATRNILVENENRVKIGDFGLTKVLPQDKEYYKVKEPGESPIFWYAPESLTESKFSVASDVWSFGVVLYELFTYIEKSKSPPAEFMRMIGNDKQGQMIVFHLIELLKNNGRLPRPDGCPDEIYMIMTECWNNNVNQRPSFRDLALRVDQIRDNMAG
The label is yes for IC50 below 800 nM and no for IC50 equal to or exceeding 800 nM.

> print(dat)
                                    compound  discrete.label
 1  CC(=O)Nc1ccc(-c2ccnc(Nc3cccc(NC(=O)c4c(Cl)cccc4Cl)c3)n2)cc1             yes
 2  CC(=O)Nc1ccc(-c2ccnc(Nc3cccc(NC(=O)c4c(Cl)cccc4Cl)n3)n2)cc1              no
 3  CC(=O)Nc1ccc(-c2ccnc(NCCCNC(=O)c3c(Cl)cccc3Cl)n2)cc1              no
 4  CC(=O)Nc1ccc(-c2ccnc(NC3CCCC(NC(=O)c4c(Cl)cccc4Cl)C3)n2)cc1 (configuration not stated)              no
 5  CC(=O)Nc1ccc(-c2ccnc(Nc3cccc(NC(=O)c4ccccc4Cl)c3)n2)cc1              no
 6  CN1CCC[C@@H]1C(=O)Nc1ccc(-c2ccnc(Nc3ccc(N4CCOCC4)cc3)n2)cc1             yes
 7  CC(=O)Nc1ccc(-c2cc(Nc3ccc(N4CCOCC4)cc3)ncn2)cc1              no
 8  CC(=O)Nc1ccc(-c2ccnc(Nc3cccc(N4CCCCC4)c3)n2)cc1              no
 9     CC(=O)Nc1ccc(-c2ccnc(Nc3ccccc3)n2)cc1              no
10  N[C@H](CO)C(=O)Nc1ccc(-c2ccnc(Nc3ccc(N4CCOCC4)cc3)n2)cc1             yes
11  CC(=O)Nc1ccc(-c2cc(C)nc(Nc3ccc(N4CCOCC4)cc3)n2)cc1              no
12  CC(=O)Nc1ccc(-c2ccnc(NCC3CN(C(=O)c4c(Cl)cccc4Cl)C3)n2)cc1              no

---

# SYSTEM_NAME: Tyrosine-protein kinase JAK1 (Homo sapiens, UniProt P23458)
# Sequence (P23458 whole entry): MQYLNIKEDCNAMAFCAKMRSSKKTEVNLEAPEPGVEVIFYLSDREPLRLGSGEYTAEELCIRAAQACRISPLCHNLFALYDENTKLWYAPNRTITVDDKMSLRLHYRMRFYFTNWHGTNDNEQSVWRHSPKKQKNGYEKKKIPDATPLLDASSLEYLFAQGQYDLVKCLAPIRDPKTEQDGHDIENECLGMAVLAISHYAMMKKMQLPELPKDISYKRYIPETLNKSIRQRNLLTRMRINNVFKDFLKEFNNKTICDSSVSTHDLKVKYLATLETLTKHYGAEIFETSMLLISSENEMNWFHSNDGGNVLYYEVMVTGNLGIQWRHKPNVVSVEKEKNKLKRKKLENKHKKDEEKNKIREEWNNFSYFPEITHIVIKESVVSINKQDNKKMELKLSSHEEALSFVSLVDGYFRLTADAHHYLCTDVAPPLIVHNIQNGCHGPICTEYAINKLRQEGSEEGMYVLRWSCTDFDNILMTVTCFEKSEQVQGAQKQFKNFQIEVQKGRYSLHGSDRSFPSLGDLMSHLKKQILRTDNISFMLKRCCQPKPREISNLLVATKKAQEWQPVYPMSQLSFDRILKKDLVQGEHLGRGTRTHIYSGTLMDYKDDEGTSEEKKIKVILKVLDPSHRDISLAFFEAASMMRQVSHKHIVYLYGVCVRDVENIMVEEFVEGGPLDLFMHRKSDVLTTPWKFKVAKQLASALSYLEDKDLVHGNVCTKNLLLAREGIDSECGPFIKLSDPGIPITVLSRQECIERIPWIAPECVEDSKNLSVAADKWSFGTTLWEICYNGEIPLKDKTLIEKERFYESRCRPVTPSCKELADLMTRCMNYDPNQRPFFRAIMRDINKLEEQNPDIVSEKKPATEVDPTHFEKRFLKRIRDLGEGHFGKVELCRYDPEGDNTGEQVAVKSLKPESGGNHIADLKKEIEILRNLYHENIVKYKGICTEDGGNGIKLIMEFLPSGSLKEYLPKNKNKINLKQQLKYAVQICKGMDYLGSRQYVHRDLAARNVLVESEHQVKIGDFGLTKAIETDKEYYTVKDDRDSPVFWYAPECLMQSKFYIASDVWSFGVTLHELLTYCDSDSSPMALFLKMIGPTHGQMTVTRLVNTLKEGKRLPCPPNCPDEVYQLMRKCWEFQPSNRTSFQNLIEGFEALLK
pIC50: −log10 of the molar value.
VALUE_TYPE: pIC50

> print(dat)
                        structure.as.smiles  value.type  reported.measurement
1  O=C(Nc1ccc(-c2ccnc(Nc3ccc(N4CCOCC4)cc3)n2)cc1)[C@H]1CCCN1       pIC50                  6.87

---

# ASSAY_PROTOCOL: Oral bioavailability in Beagle dog at 3 mg/kg
# Format: ADME, organism-based, Canis lupus familiaris
# APPLIED_CONDITIONS: in vivo
VALUE_TYPE: bioavailability (%)

> print(dat)
                        structure.as.smiles       value.type  unit.label  reported.measurement
1  O=C(Nc1ccc(-c2ccnc(Nc3ccc(N4CCOCC4)cc3)n2)cc1)[C@H]1CCCN1  bioavailability           %                  44.8

---

# Tested on: Mus musculus
# ASSAY_PROTOCOL: Inhibition of JAK2 in HEL 92.1.7 cells xenografted in po dosed nude mouse assessed as inhibition of STAT1 phosphorylation after 4 hrs
# Format: functional, organism-based
pIC50: −log10 of the molar value.
VALUE_TYPE: pIC50

> print(dat)
                        structure.as.smiles  reported.measurement
1  O=C(Nc1ccc(-c2ccnc(Nc3ccc(N4CCOCC4)cc3)n2)cc1)[C@H]1CCCN1                  5.86

---

# SYSTEM_NAME: Vascular endothelial growth factor receptor 1 (Homo sapiens)
# Sequence (P17948 whole entry): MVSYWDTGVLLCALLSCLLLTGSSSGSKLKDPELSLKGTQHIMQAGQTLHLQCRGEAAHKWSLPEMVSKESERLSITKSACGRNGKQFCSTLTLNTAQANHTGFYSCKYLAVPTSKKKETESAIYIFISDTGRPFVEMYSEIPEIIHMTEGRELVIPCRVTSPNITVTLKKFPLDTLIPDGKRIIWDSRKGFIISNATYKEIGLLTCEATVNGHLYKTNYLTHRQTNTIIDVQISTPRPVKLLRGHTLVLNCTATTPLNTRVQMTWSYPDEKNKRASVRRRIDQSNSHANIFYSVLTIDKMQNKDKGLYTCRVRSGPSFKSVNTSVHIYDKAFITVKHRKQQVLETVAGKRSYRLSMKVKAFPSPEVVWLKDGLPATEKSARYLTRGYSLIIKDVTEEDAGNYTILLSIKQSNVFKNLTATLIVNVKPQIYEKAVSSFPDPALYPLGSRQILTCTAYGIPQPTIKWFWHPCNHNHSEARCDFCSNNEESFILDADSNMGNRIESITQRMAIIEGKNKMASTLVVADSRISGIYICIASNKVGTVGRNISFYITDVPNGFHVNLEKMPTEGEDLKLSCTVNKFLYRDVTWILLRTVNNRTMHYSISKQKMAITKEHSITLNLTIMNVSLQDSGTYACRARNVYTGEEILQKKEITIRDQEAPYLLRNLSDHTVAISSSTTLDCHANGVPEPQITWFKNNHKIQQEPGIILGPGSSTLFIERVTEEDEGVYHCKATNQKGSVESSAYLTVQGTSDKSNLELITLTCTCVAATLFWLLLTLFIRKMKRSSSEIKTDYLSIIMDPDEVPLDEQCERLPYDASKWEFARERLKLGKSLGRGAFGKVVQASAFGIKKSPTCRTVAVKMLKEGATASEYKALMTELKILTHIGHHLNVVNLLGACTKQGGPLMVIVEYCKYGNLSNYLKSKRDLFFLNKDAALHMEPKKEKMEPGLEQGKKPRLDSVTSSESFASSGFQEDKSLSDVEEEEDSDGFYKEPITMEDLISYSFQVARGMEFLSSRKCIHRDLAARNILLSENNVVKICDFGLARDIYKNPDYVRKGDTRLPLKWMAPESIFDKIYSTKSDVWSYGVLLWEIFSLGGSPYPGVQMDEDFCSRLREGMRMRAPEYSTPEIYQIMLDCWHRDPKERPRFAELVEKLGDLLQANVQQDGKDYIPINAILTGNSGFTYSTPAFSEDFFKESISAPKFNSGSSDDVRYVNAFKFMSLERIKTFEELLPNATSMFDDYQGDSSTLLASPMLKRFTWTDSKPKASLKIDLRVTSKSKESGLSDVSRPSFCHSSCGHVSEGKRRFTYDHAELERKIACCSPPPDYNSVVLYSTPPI
pIC50: −log10 of the molar value.
VALUE_TYPE: pIC50

> print(dat)
                        structure.as.smiles  value.type  reported.measurement
1  O=C(Nc1ccc(-c2ccnc(Nc3ccc(N4CCOCC4)cc3)n2)cc1)[C@H]1CCCN1       pIC50                  6.04

---

# ASSAY_PROTOCOL: Half life in cynomolgus monkey at 3 mg/kg, iv
# Format: ADME, organism-based, Macaca fascicularis
# Parameters: dose 3 mg/kg, route intravenous
# APPLIED_CONDITIONS: in vivo
VALUE_TYPE: half-life

> print(dat)
                        structure.as.smiles  reported.measurement
1  O=C(Nc1ccc(-c2ccnc(Nc3ccc(N4CCOCC4)cc3)n2)cc1)[C@H]1CCCN1                3.28 h
